- target-of-assay: T1, SEMG2(497-509) fragment (Homo sapiens, UniProt Q02383)
- T1 construct: SEMG2(497-509) fragment and SEMG2(563-574) fragment were immobilized on the ELISA plate; made in house; host or cells: chemical synthesis
- procedure-text: ELISA binding of antibodies to SEMG2(497-509) epitope
measurement-kind: binding to SEMG2(497-509) epitope

- MM08: mouse monoclonal antibody against SEMG2(497-509), mIgG1 kappa, VH SEQ ID NO:38, VL SEQ ID NO:45 (antibody, V domains shown, UNSURE (1)..(120) VH; UNSURE (1)..(115) VL) VH: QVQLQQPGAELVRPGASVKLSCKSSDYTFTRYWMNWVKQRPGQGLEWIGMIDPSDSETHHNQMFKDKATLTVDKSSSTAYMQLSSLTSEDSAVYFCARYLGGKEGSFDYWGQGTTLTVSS VL: DIVLTQSPSSLAVSAGERVTMSCKSSQSLFNSRTRKNYLAWYQQKPGQSPKLLLYWASTRESGVPDRFTGSGSGTDFTLTISSVKTEDLAVYYCKQSYELPWTFGGGTKLEMKRA: bound
- H88-96: fully human antibody from phage library against SEMG2(497-509), VH SEQ ID NO:54, VL SEQ ID NO:57 (antibody, V domains shown, UNSURE (1)..(124) VH; UNSURE (1)..(107) VL) VH: QVQLLESGGGLVQPGGSLRLSCSASGFTFSSYAMHWVRQAPGKGLEYVSAISSNGGSTYYADSVKGRFTISRDNSKNTLYLQMSSLRAEDTAVYYCVIEGGSTTGTTSGAFDIWGQGTMVTVSS VL: DIQMIQSPPSVSASVGDTVTIACRANQGIDSWLAWYQQKPGRAPKLLIYSASRLQSGVPSRFSGGGSGTDFALTISNLQPEDFATYYCQQALSLPITFGQGTRLEIK: bind
- H88-93: fully human antibody from phage library against SEMG2(497-509), VH SEQ ID NO:55, VL SEQ ID NO:58 (antibody, V domains shown, UNSURE (1)..(123) VH; UNSURE (1)..(108) VL) VH: QITLKESGPTLVKPTQTLTLTCNFSGFSLTTSGVGVAWIRQPPGKALEWLALIYWDDDQRYSPSLKSRLSVTKHTSKDQVVLTMTNVGPVDTATYYCAHLSYGPGWGYYMDVWGNGTMVTVSS VL: EIVLTQSPGTLSLSPGERASLSCRASQSVRNNYLAWYQQKPGQAPRLLIFGASNRATGIPDTFSGSGSGTDFTLTISRLEPEDFAVYYCQQYGHSPITFGQGTRLEIK: bind
- MM14: mouse monoclonal antibody against SEMG2(497-509), mIgG2b kappa, VH SEQ ID NO:40, VL SEQ ID NO:47 (antibody, V domains shown, UNSURE (1)..(122) VH; UNSURE (1)..(108) VL) VH: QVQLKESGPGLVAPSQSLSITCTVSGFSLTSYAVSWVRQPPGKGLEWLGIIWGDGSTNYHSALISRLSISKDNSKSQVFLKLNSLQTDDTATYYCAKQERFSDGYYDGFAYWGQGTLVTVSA VL: QIVLTQSPAIMSASPGEKVTITCSASSSVSYMHWFQQKPGTSPKLWIYSTSNLASGVPARFSGSGSGTSYSLTISRMEAEDAATYYCQQRSSYPFTFGSGTKLEIKRA: bound
